biological target: UniProt:P56373; experiment: In vitro bioactivity evaluation: FLIPR antagonist mode, HEK 293 cells stably transfected with human P2X3 receptor, BZATP agonist
Sequence (P56373 whole entry): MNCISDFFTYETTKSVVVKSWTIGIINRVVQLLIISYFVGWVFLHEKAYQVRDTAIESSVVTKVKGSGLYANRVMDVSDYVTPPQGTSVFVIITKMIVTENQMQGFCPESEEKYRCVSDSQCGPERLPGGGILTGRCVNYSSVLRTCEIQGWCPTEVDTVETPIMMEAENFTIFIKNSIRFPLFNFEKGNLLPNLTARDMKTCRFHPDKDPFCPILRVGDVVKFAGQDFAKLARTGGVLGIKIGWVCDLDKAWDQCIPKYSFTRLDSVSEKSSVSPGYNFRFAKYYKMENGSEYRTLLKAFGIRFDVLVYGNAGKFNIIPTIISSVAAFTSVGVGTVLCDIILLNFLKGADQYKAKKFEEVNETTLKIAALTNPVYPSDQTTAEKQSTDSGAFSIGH
assay-endpoint: IC50

Form field IC50, entry C[C@@H](Cn1c(=O)cc(Nc2ccc(Oc3ncccn3)cc2)n(Cc2ccc(Cl)cc2)c1=O)C(=O)NS(C)(=O)=O : 0.0501 to 0.1 µM

Form field IC50, entry CS(=O)(=O)NC(=O)C1(Cn2c(=O)cc(Nc3ccc(Oc4ccccn4)cc3)n(Cc3ccc(Cl)cc3)c2=O)CC1 : 0.0101 to 0.05 µM

Form field IC50, entry COC(=O)C1(Cn2c(=O)cc(Nc3ccc(Oc4ccccn4)cc3)n(Cc3ccc(Cl)cc3)c2=O)CC1 : 0.0101 to 0.05 µM

Form field IC50, entry COC(=O)C(C)(C)Cn1c(=O)cc(Nc2ccc(Oc3ccccn3)cc2)n(Cc2ccc(Cl)cc2)c1=O : 0.0101 to 0.05 µM
